Data origin: patent US8329755B2

ASSAY_READOUT: melting point

Notebook: Cc1cc(S(=O)(=O)CCCO)ccc1NC(=O)Cc1ccc(C)c(Oc2cc(Cl)cc(C#N)c2)c1 [Compound I-157] , melting point read as 78.9 to 79.5 °C

Notebook: Cc1ccc(CC(=O)Nc2ccc(S(C)(=O)=O)cc2Cl)c(F)c1Oc1cc(C#N)cc(C(F)F)c1 [Compound I-112] , melting point read as 179.9 to 182 °C

Notebook: N#Cc1cc(Cl)cc(Oc2c(Br)ccc(CC(=O)Nc3ccc(S(N)(=O)=O)cc3Cl)c2F)c1 [Compound I-109] , melting point read as 165 to 166.6 °C

Notebook: Cc1ccc(CC(=O)Nc2ccc(S(N)(=O)=O)cc2Cl)cc1Oc1cc(Cl)cc(C#N)c1 [Compound I-123] , melting point read as 194 to 194.9 °C

Further cases:
Notebook: CCc1ccc(CC(=O)Nc2ccc(S(N)(=O)=O)cc2)cc1Oc1cc(Br)cc(F)c1Cl [Compound I-39] , melting point read as 209.9 to 211.1 °C

Notebook: O=C(Cc1ccc(Cl)c(C(=O)c2cc(Cl)ccc2Cl)c1)Nc1ccccc1 [Compound I-251] , melting point read as 167.1 to 168.5 °C

Notebook: CCc1ccc(CC(=O)Nc2ccccc2Cl)cc1Oc1cc(C#N)cc(C#N)c1Cl [Compound I-60] , melting point read as 110 to 111.5 °C

Notebook: Cc1cc(S(=O)(=O)NCC(C)O)ccc1NC(=O)Cc1ccc(C)c(Oc2cc(Cl)cc(C#N)c2)c1 (stereo not drawn) [Compound I-129] , melting point read as 172.2 to 173.4 °C

Notebook: COc1ccc(CC(=O)Nc2ccc(S(N)(=O)=O)cc2C)cc1Oc1cc(C#N)ccc1Cl [Compound I-66] , melting point read as 232.9 to 236.9 °C

Notebook: CSc1nc(NC(=O)Cc2ccc(C)c(Oc3cc(Cl)cc(C#N)c3)c2)n(C)n1 [Compound I-230] , melting point read as 173 to 174 °C

Notebook: Cc1cc(C#N)cc(Oc2c(Cl)ccc(CC(=O)Nc3ccc(S(N)(=O)=O)cc3C)c2F)n1 [Compound I-124] , melting point read as 230.1 to 230.7 °C

Notebook: Cc1cc(OCC[C@@H](O)CO)ccc1NC(=O)Cc1ccc(C)c(Oc2cc(Cl)cc(C#N)c2)c1 [Compound I-151] , melting point read as 104.9 to 106.4 °C

Notebook: CCc1ccc(CC(=O)Nc2ccc(S(N)(=O)=O)cc2C)cc1Oc1cc(Cl)cc(Br)c1Cl [Compound I-36] , melting point read as 213.2 to 219.6 °C

Notebook: Cc1cc(C(=O)CN2CCOCC2)ccc1NC(=O)Cc1ccc(C)c(Oc2cc(Cl)cc(C#N)c2)c1.O=C(O)C(F)(F)F , melting point read as 110.3 to 110.5 °C

Notebook: CCCC(=O)NS(=O)(=O)c1ccc(NC(=O)Cc2ccc(Cl)c(Oc3cc(Cl)cc(C#N)c3)c2F)c(Cl)c1.[Na] [Compound I-138] , melting point read as 157.2 to 157.9 °C
